Just for reference, patent EP3782997A1 is where these values come from.

Recorded IC50 values (hENPP2 (Homo sapiens, UniProt Q13822)) are given below.

C[C@@H]1C[C@H](N2Cc3cnc(Nc4cc(C(N)=O)cc(C(F)(F)F)c4)nc3C2)CCN1C(=O)c1ccc2[nH]nnc2c1 :: 0.01 to 100 nM

Now for another entry.
Query Cc1cc(C)cc(Nc2ncc3c(n2)CN([C@H]2CCN(C(=O)c4cc5nn[nH]c5cc4F)C[C@H]2C)C3)c1 (racemic) on hENPP2 (Homo sapiens, UniProt Q13822); IC50 returned: 0.01 to 100 nM

====

# Target entity: UniProt Q13822
# Protocol notes: Human ENPP2 (hENPP2) biochemical assay using LPC as substrate
# Run conditions: 150 µM LPC (palmitoyl 16:0), 37°C for 30 min
pIC50: −log10 of the molar value.
Documented pIC50 across a set of molecules

C[C@@H]1C[C@H](N2Cc3cnc(Nc4ccccc4)nc3C2)CCN1C(=O)c1ccc2[nH]nnc2c1 :: 6.30 to 7.00
COc1cc(C)cc(Nc2ncc3c(n2)CN([C@@H]2CCN(C(=O)c4cc5nn[nH]c5cc4C)[C@H](C)C2)C3)c1 :: 7.00 to 11.00
Cc1cc(C)cc(Nc2ncc3c(n2)CN([C@@H]2CCN(C(=O)c4cc5nn[nH]c5cc4C)[C@H](C)C2)C3)c1 :: 7.00 to 11.00
Cc1cc(C)cc(Nc2ncc3c(n2)CCN(C2CCN(C(=O)c4ccc5[nH]nnc5c4)CC2)CC3)c1 :: 7.00 to 11.00
Cc1cc(C)cc(Nc2ncc3c(n2)CN([C@H]2CCN(C(=O)c4ccc(C(=O)NS(C)(=O)=O)cc4)[C@@H](C)C2)C3)c1 :: < 6.00

The reported pIC50 of the molecule `Cc1cc(C)cc(Nc2ncc3c(n2)CN([C@@H]2CCN(C(=O)c4cc(NS(C)(=O)=O)ncc4C)[C@H](C)C2)C3)c1` was 7.00 to 11.00

The reported pIC50 of the molecule `Cc1cncc(Nc2ncc3c(n2)CN(C2CN(C(=O)c4ccc5[nH]nnc5c4)C2)C3)c1` was 6.00 to 6.30

The reported pIC50 of the molecule Cc1cc(C)cc(Nc2ncc3c(n2)CN(C2CCN(C(=O)c4ccc5[nH]c(=O)oc5c4)C(C)C2)C3)c1 (centres unmarked) was 7.00 to 11.00

The reported pIC50 of the molecule `Cc1cc(Nc2ncc3c(n2)CN([C@@H]2CCN(C(=O)c4ccnc(NS(C)(=O)=O)c4)[C@H](C)C2)C3)ccc1F` was 7.00 to 11.00

The reported pIC50 of the molecule `COc1cc2[nH]nnc2cc1C(=O)N1CC[C@H](N2Cc3cnc(Nc4cc(C)cc(C)c4)nc3C2)C[C@H]1C` was 7.00 to 11.00

The reported pIC50 of the molecule `COc1ccc(Nc2ncc3c(n2)CN([C@@H]2CCN(C(=O)c4ccc5[nH]nnc5c4)[C@H](C)C2)C3)cc1` was 7.00 to 11.00

The reported pIC50 of the molecule `Cc1cc(C)cc(Nc2ncc3c(n2)CCCN(C2CN(C(=O)c4ccc5[nH]nnc5c4)C2)C3)c1` was < 6.00

The reported pIC50 of the molecule `O=C(c1ccc2[nH]nnc2c1)N1CCC(N2Cc3cnc(Nc4cc(F)cc(F)c4)nc3C2)CC1` was 6.30 to 7.00

The reported pIC50 of the molecule `C[C@@H]1C[C@H](N2Cc3cnc(Nc4ccc(Cl)cc4)nc3C2)CCN1C(=O)c1ccc2[nH]nnc2c1` was 7.00 to 11.00

====

# Target entity: hENPP2 (Homo sapiens, UniProt Q13822)
Quantity name: IC50

Cc1cc(C)cc(Nc2ncc3c(n2)CCN(C2CCN(C(=O)c4ccc5[nH]nnc5c4)[C@@H](C)C2)CC3)c1 (stereo partly shown) :: 100 to 500 nM
Cc1cc(C)cc(Nc2ncc3c(n2)CN([C@H]2CCN(C(=O)c4ccc5[nH]nnc5c4)C[C@@H]2C)C3)c1 (racemic) :: 0.01 to 100 nM
C[C@@H]1C[C@H](N2Cc3cnc(Nc4ccc(OC(F)(F)F)cc4)nc3C2)CCN1C(=O)c1ccnc(NS(C)(=O)=O)c1 :: 0.01 to 100 nM
COc1cccc(Nc2ncc3c(n2)CN([C@H]2CCN(C(=O)c4ccnc(NS(C)(=O)=O)c4)[C@H](C)C2)C3)c1 :: > 1000 nM
C[C@@H]1C[C@H](N2Cc3cnc(Nc4ccc(S(F)(F)(F)(F)F)cc4)nc3C2)CCN1C(=O)c1cc2nn[nH]c2cc1F :: 0.01 to 100 nM

Query `Cc1cc(C)cc(Nc2ncc3c(n2)CN(C2(C)CCN(C(=O)c4cc5nn[nH]c5cc4F)CC2)C3)c1` on hENPP2 (Homo sapiens, UniProt Q13822); IC50 returned: > 1000 nM

Query `Cc1cc(C)cc(Nc2ncc3c(n2)CN(C2CCN(C(=O)c4cnc5[nH]nnc5c4)CC2)C3)c1` on hENPP2 (Homo sapiens, UniProt Q13822); IC50 returned: 500 to 1000 nM

====

Recorded pIC50 values (hENPP2 (Homo sapiens)) are given below.
pIC50: −log10 of the molar value.

COc1cc(C)cc(Nc2ncc3c(n2)CN([C@H]2CCN(C(=O)c4ccnc(NS(C)(=O)=O)c4)[C@H](C)C2)C3)c1 [compound 191] :: 6.30 to 7.00

The reported pIC50 of the compound O=C(c1ccc2[nH]nnc2c1)N1CC(N2Cc3cnc(Nc4ccc(C(F)(F)F)cc4)nc3C2)C1 [compound 30] was 7.00 to 11.00

The reported pIC50 of the compound C[C@@H]1C[C@@H](N2Cc3cnc(Nc4ccc(C(F)(F)F)cc4)nc3C2)CCN1C(=O)c1ccnc(NS(C)(=O)=O)c1 [compound 190] was 7.00 to 11.00

The reported pIC50 of the compound COc1cc(Nc2ncc3c(n2)CN(C2CCN(C(=O)c4ccc5[nH]nnc5c4)CC2)C3)cc(OC)c1 [compound 27] was 6.30 to 7.00

The reported pIC50 of the compound Cc1cc(C)cc(Nc2ncc3c(n2)CN([C@H]2CCN(C(=O)c4ccnc(NS(C)(=O)=O)c4)C[C@H]2C)C3)c1 (racemic) [compound 167] was 7.00 to 11.00

The reported pIC50 of the compound CCOc1cc2[nH]nnc2cc1C(=O)N1CCC(N2Cc3cnc(Nc4cc(C)cc(C)c4)nc3C2)CC1 [compound 141] was 7.00 to 11.00

The reported pIC50 of the compound Cc1cc(C)cc(Nc2ncc3c(n2)CN(C2CCN(C(=O)c4cc5[nH]nnc5cc4F)CC2)C3)c1 [compound 79] was 7.00 to 11.00

====

Recorded IC50 values (hENPP2 (Homo sapiens, UniProt Q13822)) are given below.

Query `COc1cc2[nH]nnc2cc1C(=O)N1CC[C@@H](N2Cc3cnc(Nc4cc(C)cc(C)c4)nc3C2)C[C@@H]1C` on hENPP2 (Homo sapiens, UniProt Q13822); IC50 returned: 0.01 to 100 nM

Query `Cc1cc(C)cc(Nc2ncc3c(n2)C(C)(C)N(C2CN(C(=O)c4ccc5[nH]nnc5c4)C2)C3)c1` on hENPP2 (Homo sapiens, UniProt Q13822); IC50 returned: 0.01 to 100 nM

Query `Cc1cc(C)cc(Nc2ncc3c(n2)CN(C2CCN(C(=O)c4cc5nn[nH]c5cn4)CC2)C3)c1` on hENPP2 (Homo sapiens, UniProt Q13822); IC50 returned: 100 to 500 nM

Query Cc1cc(C)cc(Nc2ncc3c(n2)CN(C2CCCN(C(=O)c4ccc5[nH]nnc5c4)C2)C3)c1 (centres unmarked) on hENPP2 (Homo sapiens, UniProt Q13822); IC50 returned: > 1000 nM

Query COc1cc2[nH]nnc2cc1C(=O)N1CC(C)C(N2Cc3cnc(Nc4cc(C)cc(C)c4)nc3C2)C1 (centres unmarked) on hENPP2 (Homo sapiens, UniProt Q13822); IC50 returned: 100 to 500 nM

Query COC(=O)[C@H]1CN(C(=O)c2ccc3[nH]nnc3c2)CC[C@H]1N1Cc2cnc(Nc3cc(C)cc(C)c3)nc2C1 (racemic) on hENPP2 (Homo sapiens, UniProt Q13822); IC50 returned: 0.01 to 100 nM

Query `Cc1cc(C)cc(Nc2ncc3c(n2)CN(C2CN(C(=O)c4ccc5[nH]c(=S)oc5c4)C2)C3)c1` on hENPP2 (Homo sapiens, UniProt Q13822); IC50 returned: 0.01 to 100 nM

Query `Cc1cc(C)nc(Nc2ncc3c(n2)CN(C2CCN(C(=O)c4ccc5nn[nH]c5c4)CC2)C3)c1` on hENPP2 (Homo sapiens, UniProt Q13822); IC50 returned: > 1000 nM

====

# Target entity: hENPP2 (Homo sapiens, UniProt Q13822)
Documented IC50 across a set of molecules

See these solved cases before continuing.
Cc1cc(C)cc(Nc2ncc3c(n2)CN(C2CN(C(=O)c4ccc(=O)[nH]c4)C2)C3)c1 :: > 1000 nM
O=C(c1ccc2[nH]c(=O)oc2c1)N1CC(N2CCc3nc(Nc4cc(C(F)(F)F)cc(C(F)(F)F)c4)ncc3C2)C1 :: 0.01 to 100 nM
Cc1ccc(Nc2ncc3c(n2)CN([C@H]2CCN(C(=O)c4ccnc(NS(C)(=O)=O)c4)[C@H](C)C2)C3)cc1 :: 500 to 1000 nM

Now for another entry.
Query `Cn1nc(C(C)(C)C)cc1Nc1ncc2c(n1)CN(C1CCN(C(=O)c3ccc4[nH]nnc4c3)CC1)C2` on hENPP2 (Homo sapiens, UniProt Q13822); IC50 returned: > 1000 nM
